study.system: T1, apical domain of human CD71 (human, UniProt P02786 189-383, limits assumed)
T1 construct: domain: apical domain; Screen 4 panned on human apical domains, the ELISA text says only 'apical domain'
T1 sequence (P02786 189-383 limits assumed): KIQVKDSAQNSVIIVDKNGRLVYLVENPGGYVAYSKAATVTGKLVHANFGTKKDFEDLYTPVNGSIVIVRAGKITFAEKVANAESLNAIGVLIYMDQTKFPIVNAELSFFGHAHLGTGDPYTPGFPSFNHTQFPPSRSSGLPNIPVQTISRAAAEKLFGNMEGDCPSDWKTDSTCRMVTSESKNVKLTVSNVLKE
experiment.notes: primary ELISA, RLU over HSA
quantity.kind: Apical domain:HSA

binder	measured.result
CD71-binding FN3 domain of SEQ ID NO: 543 (designed binder) MLPAPKNLVVSRVTEDSARLSWTAPDAAFDSFFIGYLEPQPPGEAISLYVPGSERSYDLTGLKPGTEYNVTIQGVKGGFPSIPLVAVFTT	182
CD71-binding FN3 domain of SEQ ID NO: 475 (designed binder) MLPAPKNLVVSRVTEDSARLSWTAPDAAFDSFFIGYLEPQPPGEAITLYVPGSERSYDLTGLKPGTEYNVTIQGVKGGFPSIPLSAEFTT	94
CD71-binding FN3 domain of SEQ ID NO: 538 (designed binder) MLPAPKNLVVSRVTEDSARLSWTAPDAAFDSFFIGYLEPQPPGEAIDLYVPGSERSYDLTGLKPGTEYNVTIQGVKGGFPSHPLVAVFTT	164
CD71-binding FN3 domain of SEQ ID NO: 461 (designed binder) MLPAPKNLVVSRVTEDSARLSWTAPDAAFDSFFIGYLEPQPPGEAIGLFVPGSERSYDLTGLKPGTEYNVTIQGVKGGFPSMPLSPIFTT	166
